The reported measurements were obtained from ChEMBL document CHEMBL3872222.

- Test system: CHO
- protocol-notes: Effect on oxidative stress in CHO cells assessed as intracellular ROS level at 1 uM after overnight incubation by DCFH-DA staining based fluorescence assay relative to control
- Format: functional, Cricetulus griseus
Hi there, I'd appreciate the recorded Activity for every entry that follows.
Give bare numbers, in %.

Go through the list and state Activity for each entry.
1. CC(=O)Oc1ccc(/C=C/C(=O)/C=C(/C=C/c2ccc(OC(C)=O)cc2)NCC(C)C)cc1
2. CCCNC(=C\C(=O)/C=C/c1ccc(O)c(OC)c1)/C=C/c1ccc(O)c(OC)c1
3. COc1cc(/C=C/C(=O)/C=C(/C=C/c2ccc(OC(C)=O)c(OC)c2)NCC(C)C)ccc1OC(C)=O

Reply:
1: 152; 2: 116; 3: 111

Task item: For `O=C(/C=C/c1ccc(O)cc1)CC(=O)/C=C/c1ccc(O)cc1` , what is its reported Activity?
Reply: 101

---

- Test system: CHO
- protocol-notes: Effect on oxidative stress in CHO cells assessed as intracellular ROS level at 1 uM after overnight incubation by DCFH-DA staining based fluorescence assay relative to control
- Assay type: functional, Cricetulus griseus
property-label: Activity (%)
Numbers only, in %.

A selection of reference data follows.
In [3]: df
Out[3]:
                                   molecule  property_label  val
0  CCC(C)NC(=C\C(=O)/C=C/c1ccc(O)c(OC)c1)/C=C/c1ccc(O)c(OC)c1 (configuration not stated)        Activity  107
1  COc1cc(/C=C/C(=O)CC(=O)/C=C/c2ccc(O)c(OC)c2)ccc1O [CURCUMIN]        Activity  112
2  CCC(C)NC(=C\C(=O)/C=C/c1ccc(OC(C)=O)c(OC)c1)/C=C/c1ccc(OC(C)=O)c(OC)c1 (configuration not stated)        Activity   88

Quick batch: Activity for everything below.
1. COc1cc(/C=C/C(=O)/C=C(/C=C/c2ccc(OC(C)=O)c(OC)c2)NC2CCCCC2)ccc1OC(C)=O
2. COc1cc(/C=C/C(=O)/C=C(/C=C/c2ccc(O)c(OC)c2)NC2CCCCC2)ccc1O
3. C=CCNC(=C\C(=O)/C=C/c1ccc(O)c(OC)c1)/C=C/c1ccc(O)c(OC)c1
4. CCCCNC(=C\C(=O)/C=C/c1ccc(O)c(OC)c1)/C=C/c1ccc(O)c(OC)c1

Reply:
[89, 137, 115, 129]

Hey, can you go through the list below and give me Activity for every item?
1. COc1cc(/C=C/C(=O)/C=C(/C=C/c2ccc(O)c(OC)c2)NCC(C)C)ccc1O
2. CC(C)CNC(=C\C(=O)/C=C/c1ccc(O)cc1)/C=C/c1ccc(O)cc1
3. O=C(/C=C(/C=C/c1ccc(O)cc1)NC1CCCCC1)/C=C/c1ccc(O)cc1
4. COc1cc(/C=C/C(=O)CC(=O)/C=C/c2ccc(OC(C)=O)c(OC)c2)ccc1OC(C)=O
5. CCC(C)NC(=C\C(=O)/C=C/c1ccc(O)cc1)/C=C/c1ccc(O)cc1 (configuration not stated)

Reply:
1. 104
2. 109
3. 111
4. 128
5. 104

---

- protocol-notes: Antioxidant activity assessed as trolox equivalent of ferric ion reducing activity using Fe3+-TPTZ by measuring Fe2+-TPTZ formation after 4 mins by UV-vis spectrophotometry based FRAP assay
- Format: functional
property-label: Activity (µMequiv/µM)
Give bare numbers, in µMequiv/µM.

Batch of 4 molecules: report Activity for each.
1. O=C(/C=C/c1ccc(O)cc1)CC(=O)/C=C/c1ccc(O)cc1 [BISDEMETHOXYCURCUMIN]
2. CC(=O)Oc1ccc(/C=C/C(=O)/C=C(/C=C/c2ccc(OC(C)=O)cc2)NCC(C)C)cc1
3. CCCNC(=C\C(=O)/C=C/c1ccc(O)c(OC)c1)/C=C/c1ccc(O)c(OC)c1
4. CCC(C)NC(=C\C(=O)/C=C/c1ccc(O)cc1)/C=C/c1ccc(O)cc1 (centres undefined)

Reply:
1. 0.28
2. 0.01
3. 0.87
4. 0.18

Parameter requested: Activity. Apply to each item below.
1. CC(C)CNC(=C\C(=O)/C=C/c1ccc(O)cc1)/C=C/c1ccc(O)cc1
2. COc1cc(/C=C/C(=O)/C=C(/C=C/c2ccc(O)c(OC)c2)NC2CCCCC2)ccc1O
3. CCC(C)NC(=C\C(=O)/C=C/c1ccc(OC(C)=O)c(OC)c1)/C=C/c1ccc(OC(C)=O)c(OC)c1 (centres undefined)
4. CCC(C)NC(=C\C(=O)/C=C/c1ccc(O)c(OC)c1)/C=C/c1ccc(O)c(OC)c1 (centres undefined)
5. CCCCNC(=C\C(=O)/C=C/c1ccc(O)c(OC)c1)/C=C/c1ccc(O)c(OC)c1

Reply:
1: 0.19; 2: 0.83; 3: 0; 4: 1.08; 5: 1.29

---

Kindly state Activity for each of the entries shown.
- protocol-notes: Antioxidant activity assessed as trolox equivalent of ferric ion reducing activity using Fe3+-TPTZ by measuring Fe2+-TPTZ formation after 4 mins by UV-vis spectrophotometry based FRAP assay
- Type: functional
Answers are plain numbers, in µMequiv/µM.

In [3]: df
Out[3]:
                    structure_smiles_string   val
0  COc1cc(/C=C/C(=O)CC(=O)/C=C/c2ccc(O)c(OC)c2)ccc1O     1
1  COc1cc(/C=C/C(=O)/C=C(/C=C/c2ccc(OC(C)=O)c(OC)c2)NC2CCCCC2)ccc1OC(C)=O  0.04
2  O=C(/C=C(/C=C/c1ccc(O)cc1)NC1CCCCC1)/C=C/c1ccc(O)cc1  0.56
3  COc1cc(/C=C/C(=O)CC(=O)/C=C/c2ccc(OC(C)=O)c(OC)c2)ccc1OC(C)=O  0.03
4  COc1cc(/C=C/C(=O)/C=C(/C=C/c2ccc(OC(C)=O)c(OC)c2)NCC(C)C)ccc1OC(C)=O  0.04
5  C=CCNC(=C\C(=O)/C=C/c1ccc(O)c(OC)c1)/C=C/c1ccc(O)c(OC)c1  1.14

Now for the compound whose Activity we want.
Task item: // returns reported Activity for input `COc1cc(/C=C/C(=O)/C=C(/C=C/c2ccc(O)c(OC)c2)NCC(C)C)ccc1O`
Reply: 0.89

---

- System: EA.hy 926
- protocol-notes: Effect on oxidative stress in human EAhy926 cells assessed as intracellular ROS level at 1 uM after overnight incubation by DCFH-DA staining based fluorescence assay relative to control
- Format: functional
Think of 90% as a floor: if Activity stands on it or above, it is satisfied; beneath it, not satisfied.

Solved cases (3 shown):
>>> print(df.to_string())
                                   molecule    group_label
0  O=C(/C=C(/C=C/c1ccc(O)cc1)NC1CCCCC1)/C=C/c1ccc(O)cc1      satisfied
1  CC(=O)Oc1ccc(/C=C/C(=O)/C=C(/C=C/c2ccc(OC(C)=O)cc2)NCC(C)C)cc1  not satisfied
2  COc1cc(/C=C/C(=O)CC(=O)/C=C/c2ccc(OC(C)=O)c(OC)c2)ccc1OC(C)=O      satisfied

Task item: Determine whether this molecule has Activity no lower than 90%: `C=CCNC(=C\C(=O)/C=C/c1ccc(O)c(OC)c1)/C=C/c1ccc(O)c(OC)c1`
Reply: satisfied

Task item: Also, `COc1cc(/C=C/C(=O)/C=C(/C=C/c2ccc(OC(C)=O)c(OC)c2)NCC(C)C)ccc1OC(C)=O` please.
Reply: satisfied

Task item: Then this molecule: CCC(C)NC(=C\C(=O)/C=C/c1ccc(OC(C)=O)c(OC)c1)/C=C/c1ccc(OC(C)=O)c(OC)c1 (configuration not stated)
Reply: not satisfied

---

- protocol-notes: Solubility of the compound in serum-free DMEM assessed as compound concentration required for crystal formation measured after 1 day by microscopic analysis
- Format: physicochemical
- run-conditions: 24 h
I'd be grateful if you could share measured solubility for these entries.
Give bare numbers, in µM.

Recorded results for 5 compounds are shown here.
In [3]: df
Out[3]:
                                   compound  property_label  val
0  CCC(C)NC(=C\C(=O)/C=C/c1ccc(O)cc1)/C=C/c1ccc(O)cc1 (stereo unspecified)      solubility   25
1  COc1cc(/C=C/C(=O)/C=C(/C=C/c2ccc(O)c(OC)c2)NCC(C)C)ccc1O      solubility   25
2  COc1cc(/C=C/C(=O)CC(=O)/C=C/c2ccc(O)c(OC)c2)ccc1O [CURCUMIN]      solubility  0.5
3  CCCNC(=C\C(=O)/C=C/c1ccc(O)c(OC)c1)/C=C/c1ccc(O)c(OC)c1      solubility   50
4  COc1cc(/C=C/C(=O)/C=C(/C=C/c2ccc(O)c(OC)c2)NC2CCCCC2)ccc1O      solubility   25

State the recorded solubility for every item in the following list.
1. COc1cc(/C=C/C(=O)/C=C(/C=C/c2ccc(OC(C)=O)c(OC)c2)NC2CCCCC2)ccc1OC(C)=O
2. O=C(/C=C/c1ccc(O)cc1)CC(=O)/C=C/c1ccc(O)cc1 [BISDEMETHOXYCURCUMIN]
3. COc1cc(/C=C/C(=O)CC(=O)/C=C/c2ccc(OC(C)=O)c(OC)c2)ccc1OC(C)=O
4. CCC(C)NC(=C\C(=O)/C=C/c1ccc(O)c(OC)c1)/C=C/c1ccc(O)c(OC)c1 (stereo unspecified)
5. O=C(/C=C(/C=C/c1ccc(O)cc1)NC1CCCCC1)/C=C/c1ccc(O)cc1
6. CCC(C)NC(=C\C(=O)/C=C/c1ccc(OC(C)=O)c(OC)c1)/C=C/c1ccc(OC(C)=O)c(OC)c1 (stereo unspecified)
7. CC(C)CNC(=C\C(=O)/C=C/c1ccc(O)cc1)/C=C/c1ccc(O)cc1

Reply:
1. 5
2. 25
3. 0.5
4. 50
5. 5
6. 5
7. 25

Your task in this section: give solubility for each listed record.
1. C=CCNC(=C\C(=O)/C=C/c1ccc(O)c(OC)c1)/C=C/c1ccc(O)c(OC)c1
2. CCCCNC(=C\C(=O)/C=C/c1ccc(O)c(OC)c1)/C=C/c1ccc(O)c(OC)c1
3. CC(=O)Oc1ccc(/C=C/C(=O)/C=C(/C=C/c2ccc(OC(C)=O)cc2)NCC(C)C)cc1
4. COc1cc(/C=C/C(=O)/C=C(/C=C/c2ccc(OC(C)=O)c(OC)c2)NCC(C)C)ccc1OC(C)=O

Reply:
1: 25; 2: 5; 3: 25; 4: 5
